- test-system: ENO1 (S254A) (Homo sapiens, UniProt P06733, S254A)
- Construct: His-tagged ENO1 (S254A) protein
- Sequence (P06733 2-434 S254A): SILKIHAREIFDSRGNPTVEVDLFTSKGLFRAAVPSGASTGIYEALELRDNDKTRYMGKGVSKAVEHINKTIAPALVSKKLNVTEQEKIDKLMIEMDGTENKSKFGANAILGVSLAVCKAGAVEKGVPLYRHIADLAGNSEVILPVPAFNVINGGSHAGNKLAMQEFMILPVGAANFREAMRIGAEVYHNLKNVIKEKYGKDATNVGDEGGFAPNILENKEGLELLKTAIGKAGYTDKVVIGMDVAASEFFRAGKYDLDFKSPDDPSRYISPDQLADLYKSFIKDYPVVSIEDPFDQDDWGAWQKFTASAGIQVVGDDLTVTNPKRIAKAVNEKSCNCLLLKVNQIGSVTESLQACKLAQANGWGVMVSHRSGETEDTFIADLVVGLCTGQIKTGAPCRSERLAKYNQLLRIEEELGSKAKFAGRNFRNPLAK
- test-method-notes: microscale thermophoresis (MST)
metric: Kd
Please append the unit to your numeric answer.

Consider the molecule CCOC(=O)c1nc(-c2ccc(C(F)(F)F)cc2)oc1-c1cccc(C)c1 [KB2764] and give its measured Kd.
240 µM
